# credit: the supplement of paper PMC9112550

// shrunken log2 fold change lookup, one value per entry
Test system: Escherichia coli TOP10
Assay: shrunken log2 fold change of peptide-encoding DNA abundance (4.5 h post-induction vs induction); higher = less antimicrobial activity (less host growth inhibition)
Details: time post-induction: 4.5 h; library: site-saturation at positions 5, 18, 19, 20
readout_label: shrunken log2 fold change

{"polymer_sequence": "RRIRNRPPRLPRPRPRPGGTPRP", "readout_label": "shrunken log2 fold change", "result": 0.154}
{"polymer_sequence": "RRIRHRPPRLPRPRPRPWKLPRP", "readout_label": "shrunken log2 fold change", "result": -0.185}
{"polymer_sequence": "RRIRTRPPRLPRPRPRPTAGPRP", "readout_label": "shrunken log2 fold change", "result": 0.59}
{"polymer_sequence": "RRIRQRPPRLPRPRPRPSPAPRP", "readout_label": "shrunken log2 fold change", "result": 0.611}
{"polymer_sequence": "RRIRLRPPRLPRPRPRPQLHPRP", "readout_label": "shrunken log2 fold change", "result": -0.123}
{"polymer_sequence": "RRIRFRPPRLPRPRPRPILDPRP", "readout_label": "shrunken log2 fold change", "result": -0.0134}
{"polymer_sequence": "RRIRNRPPRLPRPRPRPIRIPRP", "readout_label": "shrunken log2 fold change", "result": 0.0229}
{"polymer_sequence": "RRIRARPPRLPRPRPRPYEDPRP", "readout_label": "shrunken log2 fold change", "result": -0.117}
{"polymer_sequence": "RRIRARPPRLPRPRPRPAGSPRP", "readout_label": "shrunken log2 fold change", "result": 0.0823}
{"polymer_sequence": "RRIRDRPPRLPRPRPRPCKAPRP", "readout_label": "shrunken log2 fold change", "result": -0.0139}
{"polymer_sequence": "RRIRVRPPRLPRPRPRPALSPRP", "readout_label": "shrunken log2 fold change", "result": 0.414}
{"polymer_sequence": "RRIRPRPPRLPRPRPRPGEFPRP", "readout_label": "shrunken log2 fold change", "result": 0.318}
{"polymer_sequence": "RRIRLRPPRLPRPRPRPEYVPRP", "readout_label": "shrunken log2 fold change", "result": 0.102}
{"polymer_sequence": "RRIRFRPPRLPRPRPRPANNPRP", "readout_label": "shrunken log2 fold change", "result": -0.917}
{"polymer_sequence": "RRIRLRPPRLPRPRPRPINWPRP", "readout_label": "shrunken log2 fold change", "result": -0.434}

----------
// shrunken log2 fold change lookup, one value per entry
System: Escherichia coli TOP10;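 further: peptides expressed intracellularly from a pBAD plasmid library in pooled LB shake-flask culture, induced with 0.3% L-arabinose, DNA abundance read by NGS, three biological replicates, DESeq2 with apeglm shrinkage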
Assay: shrunken log2 fold change of peptide-encoding DNA abundance (4.5 h post-induction vs induction); higher = less antimicrobial activity (less host growth inhibition)
Conditions: time post-induction: 4.5 h; library: site-saturation at positions 5, 18, 19, 20

{"polymer_sequence": "RRIRLRPPRLPRPRPRPPKPPRP", "shrunken log2 fold change": 0.555}
{"polymer_sequence": "RRIRIRPPRLPRPRPRPDNHPRP", "shrunken log2 fold change": -0.0565}
{"polymer_sequence": "RRIRCRPPRLPRPRPRPIHCPRP", "shrunken log2 fold change": -0.0192}
{"polymer_sequence": "RRIRQRPPRLPRPRPRPWPGPRP", "shrunken log2 fold change": 0.116}
{"polymer_sequence": "RRIRCRPPRLPRPRPRPSEYPRP", "shrunken log2 fold change": -0.497}
{"polymer_sequence": "RRIRARPPRLPRPRPRPSINPRP", "shrunken log2 fold change": -0.308}
{"polymer_sequence": "RRIRFRPPRLPRPRPRPQQVPRP", "shrunken log2 fold change": 0.0179}
{"polymer_sequence": "RRIRKRPPRLPRPRPRPREDPRP", "shrunken log2 fold change": 0.346}
{"polymer_sequence": "RRIRDRPPRLPRPRPRPTISPRP", "shrunken log2 fold change": -0.0421}
{"polymer_sequence": "RRIRPRPPRLPRPRPRPYPQPRP", "shrunken log2 fold change": -0.252}
{"polymer_sequence": "RRIRRRPPRLPRPRPRPQCMPRP", "shrunken log2 fold change": -0.0592}
{"polymer_sequence": "RRIRGRPPRLPRPRPRPPYPPRP", "shrunken log2 fold change": 0.291}
{"polymer_sequence": "RRIRMRPPRLPRPRPRPEYCPRP", "shrunken log2 fold change": 0.0929}
{"polymer_sequence": "RRIRYRPPRLPRPRPRPFKRPRP", "shrunken log2 fold change": -0.294}
{"polymer_sequence": "RRIRIRPPRLPRPRPRPHSEPRP", "shrunken log2 fold change": -0.13}
